Entries and their GI50 values follow.
Tested on: SF-268
assay_protocol: NCI tumour cell line growth inhibition, 48 h
The source made the active and inactive calls. No stated cut-off is given here; in the data, active = GI50 up to about 1.1 µM and inactive = higher.

Worked set:
INSERT INTO results (molecule, observation_type, measured) VALUES
  ('O=C(/C=C/c1ccccc1)NNC(=O)c1c(Cl)c(Cl)c(Cl)c(Cl)c1-c1nc2ccccc2[nH]1', 'GI50', '51.8 µM (inactive)'),
  ('CC(C)c1oc(=O)cc2c1C(O)C1OC(=O)C3(C)C(O)C4OC4C2(C)C13 (centres undefined) [NAGILACTONE]', 'GI50', '4.09 µM (inactive)'),
  ('CC(=O)NC1C(OCc2ccccc2)OC(COC(=O)CCCCCCCCCCNc2ccc([N+](=O)[O-])c3[nH]c4ccccc4c(=O)c23)C(O)C1OC(C)C(=O)NC(C)C(=O)NC(CCC(N)=O)C(=O)OCc1ccccc1 (centres undefined)', 'GI50', '> 100 µM (inactive)');

Query molecule follows.
Query: Give GI50 for CN(C)c1nc(-c2ccccc2)c(C(=O)c2c[nH]c3ccccc23)s1
Result: 9.2 µM (inactive)
